# Assay Explanation: gradient 5% acetonitrile 3 min, to 50% in 2 min, to 85% in 15 min, held 3 min, 100 µL/min
# Condition Summary: column: Zorbax Extend-C18 2.1 x 50 mm; eluents: water / acetonitrile, 0.1% formic acid
Readout Kind: RP-LC retention time (s)

| Molecule | Unit Of Measurement | Test Value |
| --- | --- | --- |
| CC(C)NC(=O)c1cc(N(C)C)nc2ccccc12 | s | 587 |

P = COCC(C)(O)CNC(=O)c1ccc2nsnc2c1 (centres undefined)
Q = CCc1ccc2c(c1)cc(S(=O)(=O)c1ccccc1)c(=O)n2CC(=O)NC1CCCC1
Hi, I'm comparing two records. Which one has the lower RP-LC retention time, P or Q ? Please indicate the selected item by its label.
P
(P: 606 s, Q: 942 s)

I = CCOc1ccc(C(=O)NC(C(=O)Nc2nc3ccccc3[nH]2)C(C)C)cc1OCC (centres undefined)
II = Cc1cc(C)c(S(=O)(=O)N2CCc3c(c(-c4nnc(-c5ccccc5)o4)nn3C)C2)c(C)c1
Hi there, can you help? I need to know whether I or II has lower measured RP-LC retention time. Give the label under which the chosen entry appears.
I
(I: 735 s, II: 1090 s)
